method_notes: Bioavailability in C57BL/6 mouse at 1 mg/kg, iv and 2 mg/kg, po
Assay type: ADME, organism-based
experimental_setup: in vivo
# label = TRUE if bioavailability >= 30% else FALSE

O=C(O)c1cccnc1: TRUE
CCCC1Cc2[nH]nc(-c3nnn[nH]3)c2C1 (stereo not given): TRUE
Fc1cccc(C2Cc3[nH]nc(-c4nnn[nH]4)c3C2)c1 (stereo not given): TRUE
CCCCC1Cc2[nH]nc(-c3nnn[nH]3)c2C1 (stereo in doubt; 8d): TRUE

We next turn to a different compound, shown below.
// query hey, is bioavailability for this one >= 30%? Fc1cc(F)c(F)c(C2Cc3[nH]nc(-c4nnn[nH]4)c3C2)c1 (stereo in doubt; 9o)
// result FALSE

---

Recorded measurements of clearance, one per entry
method_notes: Plasma clearance in C57BL/6 mouse at 1 mg/kg, iv and 2 mg/kg, po
Assay type: ADME, organism-based
// units = mL/min/kg; emit number, no label

CCCCC1Cc2[nH]nc(-c3nnn[nH]3)c2C1 (stereo in doubt; 8d): 21

// query Data request, read-out clearance, for CCCC1Cc2[nH]nc(-c3nnn[nH]3)c2C1 (stereo not given)
// result 30

// query Data request, read-out clearance, for Fc1cc(F)c(F)c(C2Cc3[nH]nc(-c4nnn[nH]4)c3C2)c1 (stereo in doubt; 9o)
// result 27

// query Data request, read-out clearance, for Fc1cccc(C2Cc3[nH]nc(-c4nnn[nH]4)c3C2)c1 (stereo not given)
// result 47

// query Data request, read-out clearance, for O=C(O)c1cccnc1
// result 145

---

Recorded measurements of half-life, one per entry
method_notes: Plasma half life in C57BL/6 mouse at 1 mg/kg, iv and 2 mg/kg, po
Assay type: ADME, organism-based
// units = h; emit number, no label

// query Data request, read-out half-life, for CCCCC1Cc2[nH]nc(-c3nnn[nH]3)c2C1 (stereo in doubt; 8d)
// result 1.5

// query Data request, read-out half-life, for Fc1cc(F)c(F)c(C2Cc3[nH]nc(-c4nnn[nH]4)c3C2)c1 (stereo in doubt; 9o)
// result 2.4

// query Data request, read-out half-life, for Fc1cccc(C2Cc3[nH]nc(-c4nnn[nH]4)c3C2)c1 (centres undefined)
// result 1.8

// query Data request, read-out half-life, for CCCC1Cc2[nH]nc(-c3nnn[nH]3)c2C1 (centres undefined)
// result 2.9

---

method_notes: Volume of distribution at steady state in C57BL/6 mouse at 1 mg/kg, iv and 2 mg/kg, po
Format: ADME, organism-based
experimental_setup: in vivo, read-out: Vdss
Recorded measurements of Vd, one per entry
Provide a numeric answer, followed by its unit.

See these solved cases before continuing.
Fc1cccc(C2Cc3[nH]nc(-c4nnn[nH]4)c3C2)c1 (stereo not given): 1.79 L/kg
O=C(O)c1cccnc1: 1 L/kg
Fc1cc(F)c(F)c(C2Cc3[nH]nc(-c4nnn[nH]4)c3C2)c1 (stereo in doubt; 9o): 1.1 L/kg
CCCCC1Cc2[nH]nc(-c3nnn[nH]3)c2C1 (stereo in doubt; 8d): 0.7 L/kg

With those in mind, consider the next compound.
// query Data request, read-out Vd, for CCCC1Cc2[nH]nc(-c3nnn[nH]3)c2C1 (stereo not given)
// result 1.55 L/kg
